System: primary mouse cortical neurons
Construct: primary cortical neurons, DIV 10
Method Summary: cells
Set-up: Protection from NMDA-induced (30 uM, 10 min) neuronal death; Hoechst nuclear morphology by automated microscopy
Assay Setup: Cortical neurone, 20 h, read-out: % inhibition, inhibition of NMDA-induced cell death (protection score), 30 min pre-treatment

{"columns": ["Compound", "inhibition at 10 µM"],
 "data": [
  ["NCCCCCC(=O)O [Aminocaproic acid (Amicar)]", "25.5%"],
  ["O=C1N=C(O)NC1(c1ccccc1)c1ccccc1 [Phenytoin sodium (Dilantin)]", "3.12%"],
  ["Clc1ccccc1C(c1ccccc1)(c1ccccc1)n1ccnc1 [Clotrimazole (Canesten)]", "-1.47%"],
  ["CN(C)c1nc(N(C)C)nc(N(C)C)n1 [Altretamine (Hexalen)]", "-3.75%"],
  ["CCn1cc(C(=O)O)c(=O)c2ccc(C)nc21 [Nalidixic acid (NegGram)]", "-2.4%"],
  ["CCOC(=O)C1=C(COCCN)NC(C)=C(C(=O)OC)C1c1ccccc1Cl (stereo not drawn) [Amlodipine besylate (Norvasc)]", "-2.44%"],
  ["CC(C)[N+]1(C)[C@@H]2CC[C@H]1CC(OC(=O)C(CO)c1ccccc1)C2 (stereo partly drawn) [Ipratropium bromide]", "9.81%"],
  ["C=C1c2cccc(O)c2C(O)=C2C(=O)[C@]3(O)C(O)=C(C(N)=O)C(=O)[C@@H](N(C)C)[C@@H]3[C@@H](O)[C@H]12", "13.5%"],
  ["CO[C@H]1/C=C/O[C@@]2(C)Oc3c(C)c(O)c4c(O)c(c5c(nc6cc(C)ccn65)c4c3C2=O)NC(=O)/C(C)=C\\C=C\\[C@H](C)[C@H](O)[C@@H](C)[C@@H](O)[C@@H](C)[C@H](OC(C)=O)[C@@H]1C [Rifaximin (Xifaxan)]", "1.93%"],
  ["COc1ccc2cc1Oc1ccc(cc1)C[C@H]1c3cc(c(OC)cc3CCN1C)Oc1c(OC)c(OC)cc3c1[C@H](C2)N(C)CC3 [Tetrandrine (Fanchinine)]", "9.82%"],
  ["NC(=O)c1cn(Cc2c(F)cccc2F)nn1 [Rufinamide (Banzel)]", "-3.11%"],
  ["CC1Cc2ccccc2N1NC(=O)c1ccc(Cl)c(S(N)(=O)=O)c1 (stereo not drawn) [Indapamide (Lozol)]", "0.426%"],
  ["Oc1ccc(/C=C/c2cc(O)cc(O)c2)cc1 [Resveratrol]", "22.8%"],
  ["CC(=O)O[C@@]12CO[C@@H]1C[C@H](O)[C@@]1(C)C(=O)[C@H](O)C3=C(C)[C@@H](OC(=O)[C@H](O)[C@@H](NC(=O)OC(C)(C)C)c4ccccc4)C[C@@](O)([C@@H](OC(=O)c4ccccc4)[C@H]21)C3(C)C [Docetaxel (Taxotere)]", "-4.27%"],
  ["Cn1nnc2c(C(N)=O)ncn2c1=O [Methazolastone]", "14.3%"]
]}
